Here the recorded melting point is given for each entry.

Use the examples below as a reference point.
| Compound | melting point |
| --- | --- |
| COc1ccccc1S(=O)(=O)N(C)c1cccc2cc(C3=NCC(CC(N)=O)S3)[nH]c12 (centres undefined) | 227 to 228 °C |
| COc1cc(N)c(Cl)cc1C(=O)NCC1CCN(CCCC(=O)c2ccc(O)cc2)CC1 | 199 to 201 °C |

Could you please provide reported melting point for O=[N+]([O-])c1ccc(N2C3C4CCC(C4)C32)c2nnoc12 (centres undefined) ? Thanks!
132 to 133 °C

Specify reported melting point for the compound shown: O=C(O)c1cc(F)cc(-c2cccc3cc(Cc4ccc(F)c(Cl)c4)sc23)c1
135 to 137 °C

----------
Property Name: melting point

| Compound | melting point |
| --- | --- |
| CC(C)Oc1ccc2nc(CO)n(C)c2n1 | 125 to 127 °C |
| O=C(/C=C/c1cccs1)Nc1ccc(-n2nc(C(F)(F)F)cc2C(F)(F)F)cc1 | 216 to 218 °C |
| CC12C=CC(=O)C=C1CCC1C2CCC2(C)C(=O)COC12 (configuration not stated) | 181 to 185 °C |
| CC(C)C[C@@H](CO)NC(=O)[C@@H](O)[C@@H](Cc1ccc(S(C)(=O)=O)cc1)NC(=O)OCc1ccccc1 | 165 to 173 °C |
| CCOC(=O)CN1CC(=O)N(C)c2ccc(NC(=O)NCc3ccccc3)cc2C1=O | 151 °C |

State its melting point: COc1cccc(C2CCCCNC2=O)c1 (configuration not stated)
116 to 117 °C

Recall and state the measured melting point for CN1CC(c2ccc(Cl)cc2)C(=O)C(c2cccc(Cl)c2)C1 (configuration not stated) .
126 °C

Retrieve melting point measured for CC(=O)Nc1cccc(-n2c(=O)c(CCCc3ccncc3)cc3cccnc32)c1 and print it.
200 to 202 °C

Return reported melting point. Input compound: CCCCCN1CC[C@@H](c2ccc(Br)cc2)[C@H](CO)C1 (racemic)
128 to 130 °C

Name the recorded melting point of the item Cc1nnsc1C(=O)Nc1ccccc1C(=O)O in your answer.
223 °C

Identify the reported melting point for the following entry. CCOC(=O)C(C)(OC)C(=O)Nc1cc(Cl)cc(Cl)c1 (configuration not stated)
72 to 75 °C

Check the records and state melting point for O=c1[nH]c(=O)n(C2CC(O)C(CO)O2)cc1C=CBr (configuration not stated)
165 to 166 °C

Return the recorded melting point value; entry: COc1ccc(Nc2nc(Nc3ccc(OC)c(Cl)c3)nc(OCC3CCCCC3)n2)cc1Cl
188 °C

Give the reported value of melting point for this record: CCc1cccc(C)c1NC(=S)NC(C)(C)C
94 to 96 °C

Tell me its melting point given CN(C)c1cnn(C)c(=O)c1-c1ccccc1C=NO as the entry.
202 to 203 °C

Fill in melting point for record OC1(COc2cccc3onc(OCC4CCN(CC5(O)CCOCC5)CC4)c23)CCCC1
136 °C

Give reported melting point value for C=CCONC(CCC)=C1C(=O)OC(CCC)=C(Br)C1=O
50 to 51 °C

----------
melting point listing for selected compounds.

Example cases with answers are listed next.
| Compound | melting point |
| --- | --- |
| COc1cc(Nc2nccc(NCc3ccccc3)n2)cc(OC)c1OC | 135 to 136 °C |
| C=CCN1CCC[C@H]1C(N)=O | 79 to 81 °C |
| COc1ccc(C(=O)C=Cc2cccnc2)cc1 | 113 to 114 °C |
| COc1ccc(-c2nc3cnccc3[nH]2)cc1S(C)=O (stereo unspecified) | 227 to 229 °C |
| O=C(O)c1cn(-c2ccc(F)cc2F)c2c(F)c(N3Cc4cccc(F)c4C3)c(F)cc2c1=O | > 300 °C |

Note melting point for the compound shown: COc1cc2c(cc1Nc1ncc(Cl)c(N[C@@H]3CCCC[C@H]3NS(C)(=O)=O)n1)CCOC(=O)N2C
160 to 162 °C

Give melting point for CCCCCCCCCCc1ccc(C(=O)N(O)CCCC(=O)O)cc1
98 to 100 °C

Give melting point for the following compound: CCS(=O)(=O)C(=CNc1ccc(Cl)cc1)S(=O)(=O)CC
173 to 175 °C

Hello, please tell me recorded melting point for this one: Cc1c(CN(C)C)cc(C(C)(C)C)c(O)c1C
101 to 104 °C

----------
Listed next: entries and their corresponding melting point.

| Compound | melting point |
| --- | --- |
| NC(=O)OCc1cc2c(Oc3ccc(Cl)cc3)cncc2s1 | 113 to 115 °C |
| CCCCCCCCCCCC#Cc1ccccc1C=CP(=O)(O)O | 82 to 83 °C |
| CCOC(=O)c1c2ccc(CC(=O)NOCCN3CCCCC3)ccc-2c(C(=O)OCC)c1N | 163 to 165 °C |

Answer with reported melting point of CN1C(=O)c2c(Oc3ccccc3OS(=O)(=O)C(F)(F)F)cc3c(c2C1=O)c1ccc(OCc2ccccc2)cc1n3C(=O)OC(C)(C)C
186 °C

Please supply the value of reported melting point for the item CN(Cc1ccc(CCC(=O)Nc2ccc(-c3ccc(Cl)cc3)cc2)cc1)C1CCOCC1
167 to 173 °C

----------
// values below are reported melting point

Here's what some known entries look like.
| Molecule | melting point |
| --- | --- |
| CS(=O)(=O)Nc1cc(C(O)CNC2CCN(c3ccc(CC4SC(=O)N(CC(=O)O)C4=O)cc3)CC2)ccc1O (centres undefined) | 158 to 160 °C |
| N#Cc1ccc(-c2ccc(C(CCC(=O)O)=NO)cc2)cc1 | 157 to 159 °C |
| CC(C)(C)OC(=O)[C@H]1C[C@@H](C(=O)OCc2ccccc2)[C@@H](c2ccccc2)N1C(=O)CNC(=O)Nc1cccc(C(=O)OCc2ccccc2)c1 (racemic) | 110 °C |

For the molecule CN(C=O)CCC12CCCn3c1c(c1ccccc13)CCO2 (centres undefined) , report melting point.
111 to 113 °C

----------
Overview of recorded melting point for various compounds

| Compound | Result |
| --- | --- |
| OCC1OC(n2c(I)nc3cc(Cl)c(Cl)cc32)C(O)C1O (stereo not given) | 180 to 182 °C |
| CCCc1cn(C)c2c(=O)[nH]c(-c3cc(S(=O)(=O)N4CCN(CCCOC(=O)[C@@H](NC(=O)OC(C)(C)C)C(C)C)CC4)ccc3OCC)nc12 | 132 to 134 °C |
| O=C(Nc1ccc(-n2nc(C(F)(F)F)cc2C(F)(F)F)cc1)c1ccc(C(F)(F)F)cc1C(F)(F)F | 200 to 201 °C |
| C=CCOc1ccc(OC[C@H]2CC[C@H](C=C)CC2)c(F)c1F | 27.3 °C |
| Oc1ccc2c(-c3ccccc3)coc2c1 | 138 to 143 °C |
| O=C(NCCSCc1cccc(Cl)c1)c1c(Br)cccc1Br | 55 to 57 °C |

Retrieve melting point measured for CC(=O)NC[C@H]1CN(c2ccc(N3CCC4(CC3)CC4(C#N)C#N)c(F)c2)C(=O)O1 and print it.
188 to 190 °C

Tell me its melting point given COC(=O)C(=Cc1ccc(OC)c(OCCc2ccccc2)c1)C(=O)OC as the entry.
105 to 106 °C

Give me measured melting point, please, for this compound: O=C(CCc1ccc(O)cc1)OCCC(c1ccccc1)(c1ccccc1)c1ccccc1
105 to 107 °C

Give recorded melting point. Cc1cc(C2=NCCc3ccccc32)n(C)n1
112 °C

Specify melting point for COc1ccc(C(=O)[C@H]2C[C@H]2C(=O)O)cc1 (relative stereo) and stop.
170 to 172 °C

----------
Property Name: melting point

// solved cases for melting point follow
| Compound | melting point |
| --- | --- |
| CN(C)C(=O)c1ccc(-c2ccc3nnn(Cc4ccc5ncccc5c4)c3n2)cc1F | 163 to 165 °C |
| O=S(=O)(Cl)c1ccc(CCc2ccccc2)cc1 | 90 to 95 °C |
| CC(Oc1ccc2c(c1)C(O)C(Cc1cccc(C(=O)O)c1)CO2)c1ccc2ccccc2n1 (centres undefined) | 70 to 73 °C |

Please look at the following compound next.
Dear colleague, please send me the reported melting point for Cn1c(=O)sc2cc(N3C[C@H](C(=O)NCCF)OC3=O)ccc21 when you can.
201 to 203 °C

----------
Known melting point of a selection of compounds

Consider the compound COC(=O)C1Cc2c([nH]c3ccccc23)C(C)N1Cc1ccccc1 (stereo not given) and give its recorded melting point.
143 to 144 °C

----------
# key: entry, value: melting point

Examples with answers:
| Compound | Property Name | Result |
| --- | --- | --- |
| Cc1c(-c2cccs2)nn2cc[nH]c12 | melting point | 205 to 208 °C |
| COc1cc(F)ccc1-c1ccc(S(=O)(=O)N2c3ccccc3CC2C(=O)NCCOc2ccc(C(=O)OC(C)(C)C)cc2)cc1 (centres undefined) | melting point | 86 °C |
| O=C(O)CCCC(=O)Oc1cccc(-c2cn3c(n2)sc2ccccc23)c1 | melting point | 168 to 171 °C |
| O=C1NC(=O)C(c2cn3c4c(cccc24)C(O)CC3)=C1c1c[nH]c2ccccc12 (centres undefined) | melting point | 165 to 168 °C |
| CC(=O)OC1C(Oc2cccc(O)c2C(=O)CCc2ccc3occc3c2)OC(CO)C(O)C1OC(C)=O (centres undefined) | melting point | 127 to 129 °C |

Note down melting point recorded for NCC(=O)Nc1ccc(Cl)cc1C(=NCCO)c1ccccc1F
128 to 132 °C

The values you see were collected from a melting point compilation (Tetko et al.; mined from patent text by program, amines drawn as free bases though some values may be those of a salt).
